Attribution: ChEMBL document CHEMBL2413072

Tested on: IGROV-1
ASSAY_EXPLANATION: Growth inhibition of human IGROV1 cells assessed as cell growth at 10^-7 M by sulforhodamine B assay
Type: functional
CONDITION: read-out: Activity
# key: entry, value: growth at 0.1 µM
# output: bare number, implied unit %

Guide cases for growth at 0.1 µM, answers given:
INSERT INTO measurements (smiles_input, uom, observed_value) VALUES
  ('CC(C)=CC(=O)O[C@@H]1CC(C)(C)C[C@H]2C3=CC[C@@H]4[C@@]5(C)CCC(=O)C(C)(C)[C@@H]5CC[C@@]4(C)[C@]3(C)CC[C@@]12C(=O)O', '%', 108),
  ('CC(C)=CC(=O)O[C@@H]1CC(C)(C)C[C@H]2C3=CC[C@@H]4[C@@]5(C)CC[C@H](O)C(C)(C)[C@@H]5CC[C@@]4(C)[C@]3(C)CC[C@@]12C(=O)O', '%', 106),
  ('C/C=C(/C)C(=O)O[C@@H]1CC(C)(C)C[C@H]2C3=CC[C@@H]4[C@@]5(C)CCC(=O)C(C)(C)[C@@H]5CC[C@@]4(C)[C@]3(C)CC[C@@]12C(=O)O', '%', 111),
  ('CC1(C)C[C@@H](O)[C@]2(C(=O)O)CC[C@]3(C)C(=CC[C@@H]4[C@@]5(C)C/C(=C\C=C\c6ccccc6)C(=O)C(C)(C)[C@@H]5CC[C@]43C)[C@@H]2C1', '%', 112);

Now let's try a different one.
q: Annotate the compound C/C=C(/C)C(=O)O[C@@H]1CC(C)(C)C[C@H]2C3=CC[C@@H]4[C@@]5(C)CC[C@H](O)C(C)(C)[C@@H]5CC[C@@]4(C)[C@]3(C)CC[C@@]12C(=O)O with its measured growth at 0.1 µM.
a: 111

* * *

Tested on: SF-295
ASSAY_EXPLANATION: Growth inhibition of human SF295 cells assessed as cell growth at 10 uM by sulforhodamine B assay
Format: functional
CONDITION: read-out: Activity
# key: entry, value: growth at 10 µM

Guide cases for growth at 10 µM, answers given:
INSERT INTO results (molecule, reported_property, observed_value) VALUES
  ('CC1(C)C[C@@H](O)[C@]2(C(=O)O)CC[C@]3(C)C(=CC[C@@H]4[C@@]5(C)C/C(=C\C=C\c6ccccc6)C(=O)C(C)(C)[C@@H]5CC[C@]43C)[C@@H]2C1', 'growth at 10 µM', '23.5%'),
  ('CC(C)=CC(=O)O[C@@H]1CC(C)(C)C[C@H]2C3=CC[C@@H]4[C@@]5(C)CC[C@H](O)C(C)(C)[C@@H]5CC[C@@]4(C)[C@]3(C)CC[C@@]12C(=O)O [Reduced Lantadene B]', 'growth at 10 µM', '44.6%');

q: Annotate the molecule C/C=C(/C)C(=O)O[C@@H]1CC(C)(C)C[C@H]2C3=CC[C@@H]4[C@@]5(C)CCC(=O)C(C)(C)[C@@H]5CC[C@@]4(C)[C@]3(C)CC[C@@]12C(=O)O [LANTADENE A] with its measured growth at 10 µM.
a: 27.6%

q: Annotate the molecule CC1(C)C[C@@H](O)[C@]2(C(=O)O)CC[C@]3(C)C(=CC[C@@H]4[C@@]5(C)CC[C@H](O)C(C)(C)[C@@H]5CC[C@]43C)[C@@H]2C1 with its measured growth at 10 µM.
a: 153%

q: Annotate the molecule C/C=C(/C)C(=O)O[C@@H]1CC(C)(C)C[C@H]2C3=CC[C@@H]4[C@@]5(C)CC[C@H](O)C(C)(C)[C@@H]5CC[C@@]4(C)[C@]3(C)CC[C@@]12C(=O)O [Reduced Lantadene A] with its measured growth at 10 µM.
a: -14.4%

q: Annotate the molecule COc1cc(/C=C2\C[C@]3(C)[C@H]4CC=C5[C@@H]6CC(C)(C)C[C@@H](O)[C@]6(C(=O)O)CC[C@@]5(C)[C@]4(C)CC[C@H]3C(C)(C)C2=O)ccc1O with its measured growth at 10 µM.
a: 76.5%

q: Annotate the molecule CC1(C)C[C@@H](O)[C@]2(C(=O)O)CC[C@]3(C)C(=CC[C@@H]4[C@@]5(C)CCC(=O)C(C)(C)[C@@H]5CC[C@]43C)[C@@H]2C1 with its measured growth at 10 µM.
a: 80.7%

* * *

# key: entry, value: LC50
System: COLO 205
ASSAY_EXPLANATION: Growth inhibition of human COLO205 cells by sulforhodamine B assay
Type: functional
CONDITION: read-out: LC50
# output: bare number, implied unit µM

INSERT INTO assay_data (compound, reported_property, observed_value) VALUES
  ('CC(C)=CC(=O)O[C@@H]1CC(C)(C)C[C@H]2C3=CC[C@@H]4[C@@]5(C)CCC(=O)C(C)(C)[C@@H]5CC[C@@]4(C)[C@]3(C)CC[C@@]12C(=O)O', 'LC50', 49.1),
  ('CC(C)=CC(=O)O[C@@H]1CC(C)(C)C[C@H]2C3=CC[C@@H]4[C@@]5(C)CC[C@H](O)C(C)(C)[C@@H]5CC[C@@]4(C)[C@]3(C)CC[C@@]12C(=O)O [Reduced Lantadene B]', 'LC50', 93.6),
  ('CC1(C)C[C@@H](O)[C@]2(C(=O)O)CC[C@]3(C)C(=CC[C@@H]4[C@@]5(C)C/C(=C\C=C\c6ccccc6)C(=O)C(C)(C)[C@@H]5CC[C@]43C)[C@@H]2C1', 'LC50', 6.36);

Now let's try a different one.
q: Annotate the compound C/C=C(/C)C(=O)O[C@@H]1CC(C)(C)C[C@H]2C3=CC[C@@H]4[C@@]5(C)CCC(=O)C(C)(C)[C@@H]5CC[C@@]4(C)[C@]3(C)CC[C@@]12C(=O)O [LANTADENE A] with its measured LC50.
a: 89.7

* * *

Test system: UACC-62
ASSAY_EXPLANATION: Growth inhibition of human UACC62 cells assessed as cell growth at 10^-6 M by sulforhodamine B assay
Format: functional
CONDITION: read-out: Activity
Record Met whenever growth at 1 µM is at 80% or higher; record Not met when lower.

INSERT INTO measurements (smiles_input, tested_system, assigned_label) VALUES
  ('CC(C)=CC(=O)O[C@@H]1CC(C)(C)C[C@H]2C3=CC[C@@H]4[C@@]5(C)CCC(=O)C(C)(C)[C@@H]5CC[C@@]4(C)[C@]3(C)CC[C@@]12C(=O)O', 'UACC-62', 'Not met');

q: Exam item: decide whether the reported growth at 1 µM for C/C=C(/C)C(=O)O[C@@H]1CC(C)(C)C[C@H]2C3=CC[C@@H]4[C@@]5(C)CCC(=O)C(C)(C)[C@@H]5CC[C@@]4(C)[C@]3(C)CC[C@@]12C(=O)O is at least 80%.
a: Not met

q: Exam item: decide whether the reported growth at 1 µM for CC1(C)C[C@@H](O)[C@]2(C(=O)O)CC[C@]3(C)C(=CC[C@@H]4[C@@]5(C)C/C(=C\C=C\c6ccccc6)C(=O)C(C)(C)[C@@H]5CC[C@]43C)[C@@H]2C1 is at least 80%.
a: Met

* * *

# key: entry, value: growth at 0.01 µM
Test system: SR
ASSAY_EXPLANATION: Growth inhibition of human SR cells assessed as cell growth at 10^-8 M by sulforhodamine B assay
Format: functional
CONDITION: read-out: Activity
# output: bare number, implied unit %

Guide cases for growth at 0.01 µM, answers given:
INSERT INTO assay_data (compound, tested_system, observed_value) VALUES
  ('C/C=C(/C)C(=O)O[C@@H]1CC(C)(C)C[C@H]2C3=CC[C@@H]4[C@@]5(C)CCC(=O)C(C)(C)[C@@H]5CC[C@@]4(C)[C@]3(C)CC[C@@]12C(=O)O [LANTADENE A]', 'SR', 84),
  ('C/C=C(/C)C(=O)O[C@@H]1CC(C)(C)C[C@H]2C3=CC[C@@H]4[C@@]5(C)CC[C@H](O)C(C)(C)[C@@H]5CC[C@@]4(C)[C@]3(C)CC[C@@]12C(=O)O [Reduced Lantadene A]', 'SR', 83),
  ('CC(C)=CC(=O)O[C@@H]1CC(C)(C)C[C@H]2C3=CC[C@@H]4[C@@]5(C)CCC(=O)C(C)(C)[C@@H]5CC[C@@]4(C)[C@]3(C)CC[C@@]12C(=O)O', 'SR', 109),
  ('CC1(C)C[C@@H](O)[C@]2(C(=O)O)CC[C@]3(C)C(=CC[C@@H]4[C@@]5(C)C/C(=C\C=C\c6ccccc6)C(=O)C(C)(C)[C@@H]5CC[C@]43C)[C@@H]2C1', 'SR', 107);

Now let's try a different one.
q: Annotate the compound CC(C)=CC(=O)O[C@@H]1CC(C)(C)C[C@H]2C3=CC[C@@H]4[C@@]5(C)CC[C@H](O)C(C)(C)[C@@H]5CC[C@@]4(C)[C@]3(C)CC[C@@]12C(=O)O [Reduced Lantadene B] with its measured growth at 0.01 µM.
a: 107
